Please provide measured pIC50 for the entries that follow.
# tgt: TAF1-BD2 (Homo sapiens)
# test_method_notes: TAF1-BD2 TR-FRET binding assay
# condition_parameters: Assay: TAF-1; biotinylated probe compound 1000, TR-FRET
// pIC50 is dimensionless: -log10 of concentration (M)

Need pIC50 of CN1CCC(c2cccc(-c3cn(C)c(=O)c4[nH]ccc34)c2)CC1 , thanks.
6.17

What does the data say about its pIC50? Entry: CN1CCC(Cc2cccc(-c3cn(C)c(=O)c4[nH]ccc34)c2)CC1
6.36

# get_value(readout='pIC50', item= CNC(=O)c1cccc(-c2cn(C)c(=O)c3[nH]ccc23)c1 )
7.02

Could you share which pIC50 value was measured for Cn1cc(-c2ccc(C(=O)N3CCOCC3)cc2)c2cc[nH]c2c1=O ?
6.46

If you can, please state the reported pIC50 value of Cn1cc(-c2ccc(C(=O)NCc3ccccc3)cc2)c2cc[nH]c2c1=O .
7.20

====

# tgt: BRD9 (Homo sapiens (Human))
# test_method_notes: BRD9 AlphaLisa binding assay
# condition_parameters: biotinylated H4-tetraacetyl peptide
readout_name: pIC50
// pIC50 is dimensionless: -log10 of concentration (M)

Consider the molecule CC(C)(O)c1ccc(-c2cn(C3CC3)c(=O)c3[nH]ccc23)cc1 and give its measured pIC50.
6.96

Entry under review: CCCn1cc(-c2cccc(C(=O)N(C)C)c2)c2cc[nH]c2c1=O . Reported pIC50?
6.62

For the molecule Cn1cc(-c2ccc3c(c2)NCCC(=O)N3)c2cc[nH]c2c1=O , what pIC50 is on record?
7.60

====

readout_name: IC50 (nM)
Respond numerically; units are nM and should not be typed.

Reported IC50 for CECR2 (Homo sapiens (Human), UniProt Q9BXF3), given Cn1cc(-c2ccc(C(=O)Nc3ccccc3)cc2)c2cc[nH]c2c1=O [Example 35] ?
75

# value lookup — system CECR2 (Homo sapiens (Human), UniProt Q9BXF3), readout IC50, item Cc1cc2c(-c3cccc(C(=O)N(C)C)c3)cn(C)c(=O)c2[nH]1 [Example 47]
130

Please provide the recorded IC50 for CN1CCc2cc(-c3cn(C)c(=O)c4[nH]ccc34)ccc2C1 [Example 44] , tested on CECR2 (Homo sapiens (Human), UniProt Q9BXF3).
Sequence (Q9BXF3 424-538 limits assumed): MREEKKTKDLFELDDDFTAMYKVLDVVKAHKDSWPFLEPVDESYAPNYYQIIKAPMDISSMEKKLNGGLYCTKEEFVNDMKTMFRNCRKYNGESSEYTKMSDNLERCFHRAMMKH
54

Tell me reported IC50 for CN(C)C(=O)c1ccc(-c2cn(C)c(=O)c3[nH]ccc23)cc1 [Example 18] , tested with CECR2 (Homo sapiens (Human), UniProt Q9BXF3).
730

Tell me reported IC50 for CC1Oc2cc(-c3cn(C)c(=O)c4[nH]ccc34)ccc2NC1=O (stereo not drawn) [Example 16] , tested with CECR2 (Homo sapiens (Human), UniProt Q9BXF3).
36

Lab request: please report IC50 under test system CECR2 (Homo sapiens (Human), UniProt Q9BXF3) for CN1CCN(C(=O)c2ccc(-c3cn(C)c(=O)c4[nH]ccc34)cc2)CC1=O [Example 26]
240

Record lookup: for CECR2 (Homo sapiens (Human), UniProt Q9BXF3), what IC50 belongs to Cn1cc(-c2ccc(C(=O)N3CC(F)(F)C3)cc2)c2cc[nH]c2c1=O [Example 28] ?
130

Form field - read-out: IC50; system: CECR2 (Homo sapiens (Human), UniProt Q9BXF3); submitted item: COCCC(=O)Nc1ccc(-c2cn(C)c(=O)c3[nH]ccc23)cc1 [Example 7]
170

Hi! What's the reported IC50 for CCn1cc(-c2cccc(C(=O)N(C)C)c2)c2cc[nH]c2c1=O [Example 20] on CECR2 (Homo sapiens (Human), UniProt Q9BXF3)?
1300

====

Assay read-out pIC50; system under study: BRD9 (Homo sapiens (Human), UniProt Q9H8M2).
Sequence (Q9H8M2 134-239 limits assumed): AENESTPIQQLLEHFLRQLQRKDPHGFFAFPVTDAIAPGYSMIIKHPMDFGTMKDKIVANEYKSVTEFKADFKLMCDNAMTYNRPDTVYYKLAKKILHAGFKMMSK
Give only the number. pIC50 is defined as minus log10 of concentration in molar units.

# get_value(readout='pIC50', item= CC1CNc2cc(-c3cn(C)c(=O)c4[nH]ccc34)ccc2NC1=O (centres unmarked) )
7.51

So what's the measured pIC50 for this one? CN1CCC(c2ccc(-c3cn(C)c(=O)c4[nH]ccc34)cc2)CC1
7.28

What does the data say about its pIC50? Entry: COCCNC(=O)c1ccc(-c2cn(C)c(=O)c3[nH]ccc23)cc1
7.62

Please look up its pIC50: Cn1cc(-c2ccc(C(C)(C)O)cc2)c2cc[nH]c2c1=O
7.68

pIC50 lookup needed for CN1CCC(Cc2ccc(-c3cn(C)c(=O)c4[nH]ccc34)cc2)CC1 , thanks.
7.19
